- target-or-system: human complement factor D purified from serum (human, UniProt P00746 26-253); also: test concentration or dose not given here
- Sequence (P00746 26-253): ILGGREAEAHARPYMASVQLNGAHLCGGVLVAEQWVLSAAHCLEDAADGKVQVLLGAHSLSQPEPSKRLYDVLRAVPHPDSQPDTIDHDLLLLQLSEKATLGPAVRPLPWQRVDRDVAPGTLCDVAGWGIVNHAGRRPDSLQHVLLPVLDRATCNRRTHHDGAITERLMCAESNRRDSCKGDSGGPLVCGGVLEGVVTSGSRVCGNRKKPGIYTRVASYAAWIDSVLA
- test-protocol: cell-based or functional assay
readout-label: CFD Enzymatic activity (% of Neg Ctrl)

- binder: "KCD224 (antibody, V domains shown, chimeric) VH: QVQLKESGPGLVAPSQSLSITCTVSGFSLTSYGVDWIRQSPGKGLEWLGVIWGVGSTNYNSALKSRLSISKDNSKSQVFLKMNSLQTDDTAMYYCARSYDGSYWYFDVWGTGTTVTVSS VL: DIQMTQTTSSLSASLGDRVTISCRASQVISNYLNWYQQKPDGTVKLLIYYTSRLHSGVPSRFSGSGSGTDYSLTISNLEPEDIATYYCQQYSKLPYTFGSGTKLEIK"
  assay-value: "36.3 % of Neg Ctrl"
- binder: "KCD047 (antibody, V domains shown, chimeric) VH: EVQLQQSGAEFVKPGASVRLSCTASGFNIKDTYMHWVKQRPEQGLEWIGRIDPANGYTKDDPKFQGKATITADTSSNTAYLQLSSLTSEDTAVYYCASAMDYWGQGTSVTVSS VL: QIVLTQSPAVMSASPGEKVAMTCSASSSVTYMYWYQQKPGSSPRLLIYDTSNLASGVPVRFSGSGSGTSYSLTISRMEAEDAATYYCQQWSTYPFPFGSGTKLEIK"
  assay-value: "47.3 % of Neg Ctrl"
- binder: "KCD044 (antibody, V domains shown, chimeric) VH: EVQLQQSGAELVKPGASVRLSCTASGFNIKHTYMHWVSQRPERGLEWIGKIDPANGNTKYDPKFQGKATITADTSSNTVYLQLSSLTSEDTAVYYCLNAMEYWGQGTSVTVSS VL: QSVLTQSPAIMSASPGEKVTMTCSANSSVSDMYWYQQRPGSSPRLLIYDTSNLASGVPVRFSGSGSGTSYSLTISRMEAEDAATYYCQQWSTYPWTFGGGTKLEIK"
  assay-value: "8.8 % of Neg Ctrl"
- binder: "KCD136 (antibody, V domains shown, chimeric) VH: EVQLQQSVAELVRPGASVKLSCSASGFNIKNTYMHWVNQRPEQGLEWIGRIDPANGITKYAPNFQGKATITADTSSNTAYLQLSNLTSEDTAIYYCTRAMDYWGQGTSVTVSS VL: QIVLTQSPAIMSASPGEKVTMTCSASSSVSYMYWYQQKPGSSPRLLIYDISNLASGVPVRFSGSGSGTSYSLTISRMEAEDAATYYCQQWDTYPWTFGGGTKLEIK"
  assay-value: "11.8 % of Neg Ctrl"

# context switch: different binder, same CFD Enzymatic activity (% of Neg Ctrl)
GET /values?readout=CFD Enzymatic activity (% of Neg Ctrl)&item= KCD214 (antibody, V domains shown, chimeric) VH: EVQLQQSVAEFVRPGASVKLSCTASGFNIKNTYMHWVKQRPEQGLEWIGRIDPANGNTEYAPKFQGKATITADTSSNTAYLQLSSLTSEDTAIYYCALYDYDGYWGQGTTLTVSS VL: EIVLTQSPALMAASPGEKVTITCRVSSSISSSSLHWYQQKSGTSPKPWIYGTSNLASGVPVRFSGSRSGTSYSLTISSMEAEDAATYYCQQWSDYPWTFGGGTKLEIK
12.8 % of Neg Ctrl

Values compiled from patent US20180334496A1.
